- Tested on: L1210 leukemia ip in BDF1 mice, survival T/C
- Protocol Summary: NCI In Vivo Anticancer Drug Screen. Data for tumor model L1210 Leukemia (intraperitoneal) in B6D2F1 (BDF1) mice
- Reported Conditions: endpoint: mean survival time; dose: 12.5 mg/kg/injection; schedule: Q01DX009 (ip); vehicle: Klucel (hydroxypropylcellulose) (HPC); higher = longer survival
Toxic doses and inconclusive results are not listed.
Reported T/C values for a set of molecules

{"columns": ["Smiles Str", "T/C"],
 "data": [
  ["CC[NH-].CC[NH-].[Cl][Pt+2][Cl]", "119 % of control"],
  ["CC(=O)Oc1c(OC(C)=O)c(C=O)c2c(OC(C)=O)c(-c3c(C)cc4c(C(C)C)c(OC(C)=O)c(OC(C)=O)c(C=O)c4c3OC(C)=O)c(C)cc2c1C(C)C", "97 % of control"]
]}

Form field T/C, entry Oc1ccc2ccccc2c1N=Nc1nccs1 : 96 % of control

----------
- Test system: L1210 leukemia ip in BDF1 mice, survival T/C
- Protocol Summary: NCI In Vivo Anticancer Drug Screen. Data for tumor model L1210 Leukemia (intraperitoneal) in B6D2F1 (BDF1) mice
- Reported Conditions: endpoint: mean survival time; dose: 200.0 mg/kg/injection; schedule: Q04DX003 (ip); vehicle: saline with Tween-80; higher = longer survival
Inconclusive results and toxic doses are left out.
Readout Name: T/C

{"columns": ["Molecule", "Result"],
 "data": [
  ["Cc1ccc(NC(=S)NCCO)cc1C", "98 % of control"],
  ["CCSC(C(O)C(O)C(O)C(O)CO)n1ccc(=O)[nH]c1=O (stereo not given)", "94 % of control"],
  ["Cc1ncc2c(=O)n(-c3ccc([N+](=O)[O-])cc3)[nH]c2n1", "100 % of control"],
  ["Cc1ccccc1C(c1ccccc1C)c1ccccc1C(=O)O", "93 % of control"],
  ["NC(=O)/C=C/C(=O)O", "106 % of control"],
  ["O=C1N/C(=N/OCc2ccc([N+](=O)[O-])cc2)CC(NOCc2ccc([N+](=O)[O-])cc2)N1 (stereo not given)", "101 % of control"]
]}

Form field T/C, entry CCO/C=C/c1ccccc1 : 98 % of control

Form field T/C, entry CCCCC(CC)CN(CC(CC)CCCC)c1nc(Cl)nc(N(CC(CC)CCCC)CC(CC)CCCC)n1 (stereo not given) : 94 % of control

Form field T/C, entry CCC1CCCCC1=O (stereo not given) : 111 % of control

----------
- Tested on: L1210 leukemia ip in BDF1 mice, survival T/C
- Protocol Summary: NCI In Vivo Anticancer Drug Screen. Data for tumor model L1210 Leukemia (intraperitoneal) in B6D2F1 (BDF1) mice
- Reported Conditions: endpoint: mean survival time; dose: 100.0 mg/kg/injection; schedule: Q01DX009 (ip); vehicle: Klucel (hydroxypropylcellulose) (HPC); higher = longer survival
Toxic doses and inconclusive results are not listed.
Reported T/C values for a set of compounds

{"columns": ["Compound", "T/C"],
 "data": [
  ["Cc1ccc([N+](=O)[O-])cc1N=C=O", "87 % of control"],
  ["CCOC(=O)c1ccc(NC(=O)Nc2cc(Cl)c(OC)cc2OC)cc1", "98 % of control"],
  ["CC1(C2C3OC(=O)C2C2(O)CC4OC45C(=O)OC3C25C)CO1 (centres undefined)", "95 % of control"],
  ["CSc1ccc(NC(=O)Nc2cc(C)cc(C)n2)cc1", "94 % of control"],
  ["CCN(CC)CCCC(C)Nc1ccnc(/C=C/c2ccc(Br)cc2)c1 (centres undefined)", "97 % of control"],
  ["CC(=O)N(C)c1cc2c3c(c1)CCCN3CCC2", "98 % of control"],
  ["Cc1ccc(N2CCN(CC(O)c3ccccc3)CC2)cc1 (centres undefined)", "95 % of control"],
  ["CCCC(C)OP(=O)(OCC)OCC (centres undefined)", "94 % of control"]
]}

Form field T/C, entry CCCC(=O)Nc1cc(OC)ccc1OC : 106 % of control

Form field T/C, entry CCc1cccc2ccccc12 : 90 % of control

Form field T/C, entry CCOC(=O)C1C(O)=C(P(=O)(C2=C(O)C(C(=O)OCC)C(c3ccc(OC(C)=O)cc3)C(C(=O)O)C2=O)N(CCCl)CCCl)C(=O)C(C(=O)O)C1c1ccc(OC(C)=O)cc1 (centres undefined) : 97 % of control

Form field T/C, entry CCCCCCCC/C=C\CCCCCCCC(=O)OCCCCCCCCCCCCCC : 104 % of control

Form field T/C, entry COc1ccc([N+](=O)[O-])cc1NC(=O)N(Cc1ccccc1)c1ccccc1 : 93 % of control

Form field T/C, entry CCCCCCNC(=O)NC : 97 % of control

Form field T/C, entry CCCCCCCCCCCCCCCCCCNC(=O)N1CCCCC1C (centres undefined) : 89 % of control

Form field T/C, entry N#Cc1c(N)nc2ccccc2[n+]1[O-] : 97 % of control

Form field T/C, entry COC1=C(NC2CCCCC2)C(=O)C(OC)=C(NC2CCCCC2)C1=O : 86 % of control

Form field T/C, entry CCCCCC[CH2][Sn]([CH2]CCCCCC)([CH2]CCCCCC)[CH2]CCCCCC : 103 % of control

Form field T/C, entry CC(=O)Oc1c(Br)c(-c2c(C)c(Br)c(C)c(Br)c2C)c(OC(C)=O)c(Br)c1-c1c(C)c(Br)c(C)c(Br)c1C : 95 % of control

----------
- Test system: L1210 leukemia ip in BDF1 mice, survival T/C
- Protocol Summary: NCI In Vivo Anticancer Drug Screen. Data for tumor model L1210 Leukemia (intraperitoneal) in B6D2F1 (BDF1) mice
- Reported Conditions: endpoint: mean survival time; dose: 100.0 mg/kg/injection; schedule: Q01DX009 (ip); vehicle: gum acacia; higher = longer survival
Toxic doses and inconclusive results are not listed.
Reported T/C values for a set of compounds

Worked cases, answers included:
{"columns": ["Smiles Str", "T/C"],
 "data": [
  ["COc1ccc(NC(=O)Nc2c(C)cc(C)cc2C)cc1", "94 % of control"],
  ["CC(=O)Nc1ccc(S(=O)(=O)SC(Cl)(Cl)Cl)cc1", "99 % of control"]
]}

Please turn your attention to the following entry.
Form field T/C, entry Cc1cc(OC(=O)Nc2cccc(C(F)(F)F)c2)c(C(C)C)cc1Cl : 87 % of control

----------
Reported T/C values for a set of compounds
- System: L1210 leukemia ip in BDF1 mice, survival T/C
- Protocol Summary: NCI In Vivo Anticancer Drug Screen. Data for tumor model L1210 Leukemia (intraperitoneal) in B6D2F1 (BDF1) mice
- Reported Conditions: endpoint: mean survival time; dose: 50.0 mg/kg/injection; schedule: Q01DX001 (ip); vehicle: carboxymethylcellulose (CMC); higher = longer survival
Inconclusive results and toxic doses are left out.

Worked cases, answers included:
{"columns": ["Compound", "T/C"],
 "data": [
  ["NNc1ncnc2c1ncn2C1OC(CO)C(O)C1O (configuration not stated)", "108 % of control"],
  ["COC(=O)NNC(=O)OC", "89 % of control"],
  ["CCn1c2ccccc2c2cc(N=Cc3ccc(N(CCCl)CCCl)cc3C)ccc21", "103 % of control"],
  ["COc1ccccc1CCO", "86 % of control"],
  ["COC1=C(Nc2ccccc2C)C(=O)C(OC)=C(Nc2ccccc2C)C1=O", "87 % of control"]
]}

Measured T/C (L1210 leukemia ip in BDF1 mice, survival T/C), entry CC1(CCOCc2ccccc2)NC(=O)N(CCC#N)C1=O (configuration not stated) : 102 % of control

Measured T/C (L1210 leukemia ip in BDF1 mice, survival T/C), entry N#C/C(=C/c1ccccc1)C(=O)O : 87 % of control

----------
- Test system: L1210 leukemia ip in BDF1 mice, survival T/C
- Protocol Summary: NCI In Vivo Anticancer Drug Screen. Data for tumor model L1210 Leukemia (intraperitoneal) in B6D2F1 (BDF1) mice
- Reported Conditions: endpoint: mean survival time; dose: 200.0 mg/kg/injection; schedule: Q01DX001 (ip); vehicle: saline; higher = longer survival
- Description: The antitumor activity of compounds was measured in mice bearing transplantable tumors. Survival or tumor size were measured and the results are expressed as the measurement made in the treated group (T) divided by the measurement made in the vehicle treated control group (C). The tumor model used in this assay is L1210 Leukemia (intraperitoneal) in B6D2F1 (BDF1) mice
Inconclusive results and toxic doses are left out.
Reported T/C values for a set of compounds

Worked cases, answers included:
{"columns": ["Compound", "Target System", "T/C"],
 "data": [
  ["CCCC/C(=N/Nc1ccc([N+](=O)[O-])cc1[N+](=O)[O-])c1ccc(Cl)cc1", "L1210 leukemia ip in BDF1 mice, survival T/C", "88 % of control"],
  ["OCC1OC(n2cnc3cncnc32)CC1O (centres undefined)", "L1210 leukemia ip in BDF1 mice, survival T/C", "97 % of control"]
]}

Form field T/C, entry C(=N\N1CCN(/N=C/c2ccc(OCc3ccccc3)cc2)CC1)/c1ccc(OCc2ccccc2)cc1 : 96 % of control

Form field T/C, entry COc1ccc(/C=N/NC(N)=S)cc1 : 94 % of control

Form field T/C, entry CC(O)CC(=O)NN (centres undefined) : 100 % of control

Form field T/C, entry Cn1c(=O)c2[nH]c(C3CC4C5CCC(C5)C4C3)nc2n(C)c1=O (centres undefined) : 100 % of control

Form field T/C, entry CCCCCCCCCC(CCCCCCCC(=O)O)NC(C)=O (centres undefined) : 94 % of control

Form field T/C, entry O=c1[nH]c2cnn(-c3ccccc3)c2c(=O)n1OS(=O)(=O)c1ccccc1 : 97 % of control

Form field T/C, entry Cc1c(/C=N/NC(N)=S)[nH]c(=O)[nH]c1=O : 94 % of control

Form field T/C, entry CCC(C)c1ccc(O)c(CN(CCO)CCO)c1 (centres undefined) : 101 % of control

Form field T/C, entry O=NC1C(Cl)C2CC1C1c3ccccc3C21 (centres undefined) : 104 % of control

Form field T/C, entry CCCOC1=C2CCCCC2CC1 (centres undefined) : 113 % of control

Form field T/C, entry O=C1NC(=O)C(=O)C(=O)N1 : 108 % of control

Form field T/C, entry CC(C)CCC(C)c1ccncc1 (centres undefined) : 97 % of control

Form field T/C, entry CCCCCCCCCC(F)CCCCCCCC(=O)O (centres undefined) (tested in a mixture with another compound) : 91 % of control

Form field T/C, entry CC(C)C(C)(C)NC(N)=O : 104 % of control

Form field T/C, entry O=C(Nc1ccc(S(=O)(=O)NC2CCCCC2)cc1)OC1CCCCC1 : 90 % of control

Form field T/C, entry CNC(=O)NC(C)(C)CCCCC(C)(C)NC(=O)NC : 93 % of control

Form field T/C, entry O=S1(=O)CC(c2ccccc2)=NN=C(c2ccccc2)C1 : 86 % of control
